Values compiled from patent US20210095036A1.

# study_target: T1, GFRα4 isoform b (GFRα4b), Fc fusion (human)
# T1 construct: the entry holds the whole fusion; also called GFR4α4b; GFRα4-Fc
# T1 sequence (chain, as listed by the source limits assumed): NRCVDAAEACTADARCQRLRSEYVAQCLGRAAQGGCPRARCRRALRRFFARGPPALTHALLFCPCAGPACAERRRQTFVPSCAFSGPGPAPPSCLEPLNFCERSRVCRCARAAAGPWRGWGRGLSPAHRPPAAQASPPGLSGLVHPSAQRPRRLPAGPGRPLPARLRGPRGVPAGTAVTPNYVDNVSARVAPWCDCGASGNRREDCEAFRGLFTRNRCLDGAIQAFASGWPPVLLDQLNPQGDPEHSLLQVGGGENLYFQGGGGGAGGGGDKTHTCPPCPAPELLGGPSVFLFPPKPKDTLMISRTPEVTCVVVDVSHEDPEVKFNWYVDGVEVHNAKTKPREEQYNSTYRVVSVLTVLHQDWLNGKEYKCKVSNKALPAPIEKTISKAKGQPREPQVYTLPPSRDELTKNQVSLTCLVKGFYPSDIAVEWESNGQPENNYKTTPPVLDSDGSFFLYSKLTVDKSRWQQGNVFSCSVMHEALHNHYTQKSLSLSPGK
# test_name: phage ELISA, immobilized GFRα4b; second token of the cell
experimental_endpoint: binding result

Known binding result results, listed for orientation:
26.H1.L1m4 (scFv, pIII not in the entry; order Vλ-linker-VH; also called scFv 26) scFv: QLVLTQSPSASASLGASVKLTCTLSSAHKTYTIAWHQQQPEKGPRYLMQVKSDGSYTKGTGVPDRFSGSSSGADRYLTISSLQSEDEADYYCGADDNGGYVFGGGTQLTVLGGGSSRSSSSGGGGSGGGGQVQLQESGPGLVKPSETLSLTCAVSGYSISRHALTWIRQPPGKGLEWIGAIDNAGTTYYASWAKSRVTISVDTSKNQFSLKLSSVTAADTAVYYCARVFYDINSGYYLDGMDLWGPGTLVTVSS :: no binding
4.H1m1.L3m1 (scFv, pIII not in the entry; order Vλ-linker-VH; also called scFv 4) scFv: QFVLTQPASVSGSPGQSITISCTLSSAHKTYTIDWYQQHPGKAPKYLMQVKSDGSYTKGTGVPNRFSGSSSGADRYLTISGLQAEDEADYVCGADDNGGYVFGGGTQLTVTGGGSSRSSSSGGGGSGGGGQQSVKESGPGLVKPSETLSLTCAVSGFSLSRHALTWVRQPPGKGLEWIGAIDNAGTTYYASWAKSRVTISRNTDLHTVSLKLSSVTAADTAVYFCARVFYDINSGYYLDGMDLWGPGTLVTVSS :: binds
27.H1.L3m4 (scFv, pIII not in the entry; order Vλ-linker-VH; also called scFv 27) scFv: QSALTQPASVSGSPGQSITISCTGTSAHKTYTVSWYQQHPGKAPKYLMQVKSDGSYTKGTGVPNRFSGSSSGADRYLTISGLQAEDEADYYCGADDNGGYVFGGGTQLTVLGGGSSRSSSSGGGGSGGGGQVQLQESGPGLVKPSETLSLTCAVSGYSISRHALTWIRQPPGKGLEWIGAIDNAGTTYYASWAKSRVTISVDTSKNQFSLKLSSVTAADTAVYYCARVFYDINSGYYLDGMDLWGPGTLVTVSS :: no binding
24.H2.L3m1 (scFv, pIII not in the entry; order Vλ-linker-VH; also called scFv 24) scFv: QFVLTQPASVSGSPGQSITISCTLSSAHKTYTIDWYQQHPGKAPKYLMQVKSDGSYTKGTGVPNRFSGSSSGADRYLTISGLQAEDEADYVCGADDNGGYVFGGGTQLTVTGGGSSRSSSSGGGGSGGGGEVQLVESGGGLVQPGGSLRLSCAASGFTFSRHALTWVRQAPGKGLEWVSAIDNAGTTYYASWAKSRFTISRDNAKNSLYLQMNSLRAEDTAVYYCARVFYDINSGYYLDGMDLWGPGTLVTVSS :: binds

Field: next binder
Form field: reported binding result of 12.H2m1.L1m1 (scFv, pIII not in the entry; order Vλ-linker-VH; The printed entry has an E before QSVKE of the VH; also called scFv 12) scFv: QFVLTQSPSASASLGASVKLTCTLSSAHKTYTIDWYQQQPEKGPRYLMQVKSDGSYTKGTGVPDRFSGSSSGADRYLTISSLQSEDEADYYCGADDNGGYVFGGGTQLTVTGGGSSRSSSSGGGGSGGGGEQSVKESGGGLVQPGGSLRLSCAASGFTLSRHALTWVRQAPGKGLEWIGAIDNAGTTYYASWAKSRFTISRNTDLHTVYLQMNSLRAEDTAVYFCARVFYDINSGYYLDGMDLWGPGTLVTVSS
binds
